GI50 values for the compounds below.
Target: BaF3 cell lines stably transfected with kinase EGFR Del (Homo sapiens, UniProt P00533, cells depend on it, form not given)
Sequence (P00533 with tags, fused parts or gaps DEL746-750): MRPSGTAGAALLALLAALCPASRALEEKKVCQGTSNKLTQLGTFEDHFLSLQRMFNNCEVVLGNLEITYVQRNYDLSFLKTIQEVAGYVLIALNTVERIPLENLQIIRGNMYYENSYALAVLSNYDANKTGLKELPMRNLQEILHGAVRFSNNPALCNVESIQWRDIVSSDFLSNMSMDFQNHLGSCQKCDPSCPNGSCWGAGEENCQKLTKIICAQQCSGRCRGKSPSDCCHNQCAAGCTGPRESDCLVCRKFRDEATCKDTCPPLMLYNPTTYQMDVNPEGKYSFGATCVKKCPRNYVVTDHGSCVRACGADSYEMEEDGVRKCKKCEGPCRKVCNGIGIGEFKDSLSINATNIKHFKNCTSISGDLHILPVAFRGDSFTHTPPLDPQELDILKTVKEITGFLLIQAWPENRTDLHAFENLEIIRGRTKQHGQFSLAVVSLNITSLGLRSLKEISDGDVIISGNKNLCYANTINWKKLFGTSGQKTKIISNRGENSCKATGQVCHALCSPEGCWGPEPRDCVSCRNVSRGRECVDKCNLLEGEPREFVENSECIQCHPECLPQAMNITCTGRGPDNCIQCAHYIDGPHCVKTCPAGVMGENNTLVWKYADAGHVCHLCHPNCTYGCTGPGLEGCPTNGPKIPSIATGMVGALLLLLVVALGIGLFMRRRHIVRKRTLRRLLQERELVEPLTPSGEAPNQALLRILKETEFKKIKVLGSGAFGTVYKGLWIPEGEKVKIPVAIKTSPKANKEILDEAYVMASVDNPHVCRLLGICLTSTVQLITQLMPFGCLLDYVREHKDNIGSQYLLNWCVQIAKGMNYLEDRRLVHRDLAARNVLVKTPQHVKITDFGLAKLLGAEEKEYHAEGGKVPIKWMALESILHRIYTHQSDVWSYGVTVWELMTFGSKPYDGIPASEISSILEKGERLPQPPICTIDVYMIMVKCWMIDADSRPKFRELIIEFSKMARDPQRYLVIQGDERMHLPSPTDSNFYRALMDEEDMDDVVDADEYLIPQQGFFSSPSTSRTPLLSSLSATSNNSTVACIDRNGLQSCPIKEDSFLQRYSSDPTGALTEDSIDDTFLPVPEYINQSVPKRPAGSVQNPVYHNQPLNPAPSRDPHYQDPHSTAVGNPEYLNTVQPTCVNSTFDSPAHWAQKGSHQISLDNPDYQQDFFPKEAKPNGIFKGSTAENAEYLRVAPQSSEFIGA
Assay: Growth inhibition of BaF3 cell line stably transfected with kinase EGFR Del (MTS)
Assay type: cell-based
Settings: 48 h, read-out: growth inhibitory activity IC50, Del

Example entries begin here.
Task: Look at this compound and give its reported GI50. CCc1cc(Nc2ncc(C=C(C)C)c(Nc3ccc4nccnc4c3N(C)S(C)(=O)=O)n2)c(OC)cc1N1CCC(N2CCN(C)CC2)CC1
Result: ≤ 50 nM

Task: Look at this compound and give its reported GI50. C=Cc1cnc(Nc2cc(F)c(N3CCC(N4CCN(C)CC4)CC3)c(F)c2)nc1Nc1ccc2nccnc2c1NS(C)(=O)=O
Result: 50 to 500 nM

Task: Look at this compound and give its reported GI50. C=Cc1cnc(Nc2cc(CC)c(N3CCC(C(C)C)C3)cc2OC)nc1Nc1ccc2nccnc2c1P(C)(C)=O (stereo not shown)
Result: 50 to 500 nM

Task: Look at this compound and give its reported GI50. C=Cc1cnc(Nc2cc(CC)c(N3CCC(N4CCN(C)CC4)CC3)cc2OC(F)(F)F)nc1Nc1ccc2nccnc2c1N(C)S(C)(=O)=O
Result: 50 to 500 nM

Task: Look at this compound and give its reported GI50. C=Cc1cnc(Nc2cn(CC)nc2C)nc1Nc1ccc2nccnc2c1N(C)S(C)(=O)=O [II-68]
Result: 50 to 500 nM

Task: Look at this compound and give its reported GI50. C=Cc1cnc(Nc2cc(CC)c(N3CCC(N(C)C)CC3)cc2OC)nc1Nc1ccc2nccnc2c1P(C)(C)=O
Result: ≤ 50 nM

Task: Look at this compound and give its reported GI50. C=Cc1cnc(Nc2cc(C)c(N3CCC(N4CCN(C)CC4)CC3)cc2OC)nc1Nc1ccc2nccnc2c1S(C)(=O)=O
Result: 500 to 2500 nM

Task: Look at this compound and give its reported GI50. C=Cc1cnc(Nc2cc(Cc3ccccc3)c(N3CCC(N4CCN(C)CC4)CC3)cc2OC)nc1Nc1ccc2nccnc2c1N(C)S(C)(=O)=O
Result: 500 to 2500 nM

Task: Look at this compound and give its reported GI50. C=Cc1cnc(Nc2cc3c(cc2OC(F)(F)F)CCN(C)C3)nc1Nc1ccc2nccnc2c1N(C)S(C)(=O)=O
Result: 50 to 500 nM

For the next question, use this compound.
Task: Look at this compound and give its reported GI50. C=C(C)c1cnc(Nc2cnn(C)c2)nc1Nc1ccc2nccnc2c1N(C)S(C)(=O)=O
Result: 50 to 500 nM

* * *

Target: BaF3 cell lines stably transfected with kinase EGFR Del/T790M (Homo sapiens, UniProt P00533, T790M, cells depend on it, form not given)
Sequence (P00533 with tags, fused parts or gaps DEL746-750/T790M, form open): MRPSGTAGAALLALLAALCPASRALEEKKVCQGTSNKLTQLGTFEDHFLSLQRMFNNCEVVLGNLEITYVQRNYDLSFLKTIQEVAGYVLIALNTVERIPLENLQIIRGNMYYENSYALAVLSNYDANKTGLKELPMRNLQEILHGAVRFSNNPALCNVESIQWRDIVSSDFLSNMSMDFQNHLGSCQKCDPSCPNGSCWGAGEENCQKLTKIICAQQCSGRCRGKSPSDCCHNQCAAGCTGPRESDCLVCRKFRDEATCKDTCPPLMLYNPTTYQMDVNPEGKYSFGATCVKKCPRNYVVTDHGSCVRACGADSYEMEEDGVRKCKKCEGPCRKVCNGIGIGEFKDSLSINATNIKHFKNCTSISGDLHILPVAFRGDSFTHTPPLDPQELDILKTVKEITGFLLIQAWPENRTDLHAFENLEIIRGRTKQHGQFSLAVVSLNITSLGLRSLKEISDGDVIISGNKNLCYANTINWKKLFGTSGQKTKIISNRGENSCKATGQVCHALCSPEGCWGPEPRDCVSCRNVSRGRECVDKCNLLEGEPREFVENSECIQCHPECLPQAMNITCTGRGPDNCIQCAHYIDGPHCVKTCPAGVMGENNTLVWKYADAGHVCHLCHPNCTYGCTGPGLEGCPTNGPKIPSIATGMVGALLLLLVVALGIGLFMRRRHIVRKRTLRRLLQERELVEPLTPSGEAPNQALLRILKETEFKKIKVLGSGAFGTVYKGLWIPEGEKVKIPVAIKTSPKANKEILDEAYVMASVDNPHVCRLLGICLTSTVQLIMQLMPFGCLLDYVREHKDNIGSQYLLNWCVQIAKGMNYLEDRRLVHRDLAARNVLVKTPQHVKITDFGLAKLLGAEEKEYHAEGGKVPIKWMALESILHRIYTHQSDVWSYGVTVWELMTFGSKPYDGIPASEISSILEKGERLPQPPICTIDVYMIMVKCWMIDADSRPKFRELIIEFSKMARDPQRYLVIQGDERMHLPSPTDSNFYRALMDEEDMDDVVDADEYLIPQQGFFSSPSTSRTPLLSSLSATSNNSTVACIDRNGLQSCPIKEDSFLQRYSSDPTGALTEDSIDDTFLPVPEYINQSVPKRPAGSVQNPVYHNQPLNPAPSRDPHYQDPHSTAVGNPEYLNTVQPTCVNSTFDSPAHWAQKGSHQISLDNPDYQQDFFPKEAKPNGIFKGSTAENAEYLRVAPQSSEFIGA
Experiment: Growth inhibition of BaF3 cell line stably transfected with kinase EGFR Del/T790M (MTS)
Assay type: cell-based
Conditions: 48 h, read-out: growth inhibitory activity IC50, Del/T790M
Quantity measured: GI50

Task: Look at this compound and give its reported GI50. C=Cc1cnc(Nc2cc(CC)c(N3CCN(C)CC3)cc2OC)nc1Nc1ccc2nccnc2c1S(=O)(=O)NC
Result: 50 to 500 nM

Task: Look at this compound and give its reported GI50. C=Cc1cnc(Nc2cc(CC)c(N3CCC(N4CCN(C)CC4)CC3)cc2OC)nc1Nc1ccc2nccnc2c1NS(=O)(=O)C(C)C
Result: 50 to 500 nM

For the next question, use this compound.
Task: Look at this compound and give its reported GI50. C=Cc1cnc(Nc2cc(CC)c(N3CCC(N(C)C)CC3)cc2OC)nc1Nc1ccc2nccnc2c1N(C)S(C)(=O)=O
Result: ≤ 50 nM
